Where do these numbers come from? They come from patent US8058243B2.

system: murine neural precursor cells (neurosphere cultures); experiment: HTS of LOPAC library against secondary neurosphere cultures, MTT proliferation assay at 3 μM, day 7 (z score, P value); type: cell-based, mouse; conditions: LOPAC primary screen, neurosphere MTT proliferation, 3 μM, day 7
Where a name gives a salt, the structure may show the parent alone.
Threshold check on Z score: strictly below -0.8 is 1 (yes); on or above -0.8 is 0 (no).

# check: Z score < -0.8 for O=C(N[C@@H](Cc1ccccc1)C(=O)CCl)OCc1ccccc1 [Z-L-Phe chloromethyl ketone]
1 (yes)

For S=C=Nc1ccc2oc(C3=NCCN3)cc2c1 [BU99006] , is the recorded Z score below the cut-off of -0.8?
0 (no)

Lab log: compare recorded Z score with -0.8; is it strictly lower for NCCS [Cysteamine hydrochloride] ?
0 (no)

Just wondering, is Z score of CC1=C(C(=O)O)N2C(=O)[C@@H](NC(=O)[C@H](N)c3ccccc3)[C@H]2SC1 [Cephalexin hydrate] below -0.8?
1 (yes)

###

system: murine neural precursor cells (neurosphere cultures); assay: HTS of LOPAC library against secondary neurosphere cultures, MTT proliferation assay at 3 μM, day 7 (z score, P value); type: cell-based, mouse; settings: LOPAC primary screen, neurosphere MTT proliferation, 3 μM, day 7
Where a name gives a salt, the structure may show the parent alone.
EXPERIMENTAL_ENDPOINT: Z score

Identify measured Z score associated with CC(N)(Cc1ccc(O)cc1)C(=O)O (racemic)
−3.908

Return the recorded Z score value; entry: COc1ccc2c3c1O[C@H]1C(=O)CC[C@@]4(O)[C@@H](C2)N(CC2CC2)CC[C@]314.Cl [(−)-3-Methoxynaltrexone hydrochloride]
0.596

Please give the documented Z score of C[N+]1(C)[C@@H]2CC[C@H]1C[C@@H](OC(=O)C(CO)c1ccccc1)C2 (some centres unmarked) [Atropine methyl nitrate]
1.292

Recall and state the measured Z score for CCCCCCC(C(C)O)n1cnc2c(N)ncnc21.Cl (centres unmarked) .
−0.766

Supply measured Z score of O.O.O=c1c(O)c(-c2ccc(O)c(O)c2)oc2cc(O)cc(O)c12 [Quercetin dihydrate] in your reply.
−2.302

Report measured Z score; entry is O=c1[nH]cc(F)c(=O)[nH]1
−7.749

Read off the recorded Z score for N=C(N)NCCCCN.O=S(=O)(O)O [Agmatine sulfate]
0.588

Given the compound CO/N=C(\C(=O)N[C@@H]1C(=O)N2C(C(=O)O)=C(CSc3nc(=O)c(=O)[nH]n3C)CS[C@H]12)c1csc(N)n1 [Ceftriaxone sodium] , write its reported Z score.
2.230

Report measured Z score; entry is NC(CO)(CO)CO.O=C(c1ccccc1)c1ccc2n1CCC2C(=O)O (centres unmarked) [Ketorolac tris salt]
−0.726

Specify Z score for O=[N+]([O-])c1cccc2cn[nH]c12 [7-Nitroindazole (34), 7-Nitroindazole, reference compound] and stop.
−1.349

State its Z score: O=c1[nH]c2ccccc2n1CCCN1CCC(n2c(=O)[nH]c3cc(Cl)ccc32)CC1
−1.525

Determine its reported Z score: COCC(=O)O[C@]1(CCN(C)CCCc2nc3ccccc3[nH]2)CCc2cc(F)ccc2[C@@H]1C(C)C [Mibefradil dihydrochloride]
−0.027

Assign Z score to the following record: CN[C@H](CC(=O)O)C(=O)O
−1.860

Query Z score for CCCCC#Cc1nc(N)c2ncn([C@@H]3O[C@H](C(=O)NCC)[C@@H](O)[C@H]3O)c2n1
−2.504

// fetch Z score given entry NC(=O)NO [Hydroxyurea]
1.131

Name the recorded Z score of the compound listed here: Cl.NCCNC(=O)c1ccc(Cl)cc1 [Ro 16-6491 hydrochloride]
−2.181

Fill in reported Z score for this entry: CC[C@@H]1Cc2cc(O)ccc2C2=C1c1ccc(O)cc1C[C@H]2CC
−1.053

###

tested on: murine neural precursor cells (neurosphere cultures); assay: HTS of LOPAC library against secondary neurosphere cultures, MTT proliferation assay at 3 μM, day 7 (z score, P value); format: cell-based, mouse; conditions: LOPAC primary screen, neurosphere MTT proliferation, 3 μM, day 7
Counter-ions that a name gives are not always drawn.
Threshold check on Z score: strictly below 0.09 is satisfied; on or above 0.09 is not satisfied.

Is 0.09 strictly greater than the compound's reported Z score? compound: Cc1cccc(C)c1OCC(C)N.Cl (stereo not drawn) [Mexiletene hydrochloride]
satisfied

Criterion: Z score strictly below 0.09. Is it met by CN(C)S(=O)(=O)c1ccc2c(c1)/C(=C/c1cc3c([nH]1)CCCC3)C(=O)N2 ?
not satisfied

Bench note: check whether CN(C)C(=O)C(CCN1CCC(O)(c2ccc(Cl)cc2)CC1)(c1ccccc1)c1ccccc1 [Loperamide hydrochloride] shows Z score below 0.09
satisfied

A record lists OC(CN1CCN(c2cccc(Cl)c2)CC1)C(c1ccccc1)c1ccccc1 (stereo not drawn) . Is its Z score below 0.09?
not satisfied

Criterion: Z score strictly below 0.09. Is it met by COc1cc2c(CCNC(C)=O)c[nH]c2cc1O [6-Hydroxymelatonin] ?
not satisfied

In the record for CN1[C@@H](CC(=O)c2ccccc2)CCC[C@H]1C[C@H](O)c1ccccc1 [alpha-Lobeline hydrochloride] , is Z score less than 0.09?
not satisfied

Threshold test, Z score < 0.09: COc1ccc(CN(CCN(C)C)c2ccccn2)cc1 [Pyrilamine maleate]
not satisfied

Field: below-cutoff. Rule: recorded Z score strictly less than 0.09. Subject: COCCc1ccc(OCC(O)CNC(C)C)cc1.O=C(O)C(O)C(O)C(=O)O (racemic) [(±)-Metoprolol (+)-tartate]
satisfied

###

system: murine neural precursor cells (neurosphere cultures); assay: HTS of LOPAC library against secondary neurosphere cultures, MTT proliferation assay at 3 μM, day 7 (z score, P value); format: cell-based, mouse; conditions: LOPAC primary screen, neurosphere MTT proliferation, 3 μM, day 7
Structures can show the parent of a compound that is named as a salt.
EXPERIMENTAL_ENDPOINT: Z score
Form field (numeric): enter value without unit.

// output Z score; input Cc1ccccc1C(OCCN(C)C)c1ccccc1 (centres unmarked) [Orphenadrine hydrochloride] ; system murine neural precursor cells (neurosphere cultures)
0.455

Jot down Z score (murine neural precursor cells (neurosphere cultures)) of COc1ccc(Cc2nccc3cc(OC)c(OC)cc23)cc1OC [Papaverine hydrochloride] .
−0.299

Report value only: Z score, murine neural precursor cells (neurosphere cultures), O=C(O)CN(CCN(CC(=O)O)CC(=O)O)CCN(CC(=O)O)CC(=O)O
−0.458

// fetch Z score; item: CNC[C@H](O)c1cccc(O)c1 [Phenylephrine hydrochloride] ; system: murine neural precursor cells (neurosphere cultures)
−1.257

System murine neural precursor cells (neurosphere cultures). Read-out Z score. Item O=c1cc(-c2ccc(O)c(O)c2)oc2cc(O)cc(O)c12 . Report value.
−1.323

Tell me Z score of CN(C)CCN(Cc1cccs1)c1ccccn1 [Methapyrilene hydrochloride] when tested on murine neural precursor cells (neurosphere cultures).
0.628

Check murine neural precursor cells (neurosphere cultures) data and give Z score for Cl.N[C@@H](Cc1c[nH]cn1)C(=O)O [L-Histidine hydrochloride] .
−1.421

Recall the reported Z score of CC(C)(C)C1(O)CCN2CC3c4ccccc4CCc4cccc(c43)C2C1.Cl (single isomer, unassigned; (+)) [(+)-Butaclamol hydrochloride] when tested on murine neural precursor cells (neurosphere cultures).
−11.274

###

Assign Z Score to each entry below.
test system: murine neural precursor cells (neurosphere cultures); assay: HTS of LOPAC library against secondary neurosphere cultures, MTT proliferation assay at 3 μM, day 7 (z score, P value); type: cell-based, mouse; settings: LOPAC library screen, 3 μM, MTT, secondary neurosphere cultures, day 7
The reply should be a number, written without any unit.

Answer with Z Score of CN(C)CCC(c1ccc(Cl)cc1)c1ccccn1.O=C(O)/C=C\C(=O)O (single isomer, unassigned; (+)) [(+)-Chlorpheniramine maleate] measured for murine neural precursor cells (neurosphere cultures).
−1.272

Consider the compound Nc1ncnc2c1ncn2[C@@H]1O[C@H](COP(=O)(O)CP(=O)(O)OP(=O)([O-])[O-])[C@H](O)C1O.[Li+].[Li+] (stereo partly shown) tested on murine neural precursor cells (neurosphere cultures); state its Z Score.
−1.29

Provide the reported Z Score (system: murine neural precursor cells (neurosphere cultures)) for COc1cc(Cc2cnc(N)nc2N)cc(OC)c1OC
−1.23

Give reported Z Score for Nc1nc(O)c2ncn(COC(CO)CO)c2n1 (murine neural precursor cells (neurosphere cultures))
−8.939

###

test system: murine neural precursor cells (neurosphere cultures); assay: HTS of LOPAC library against secondary neurosphere cultures, MTT proliferation assay at 3 μM, day 7 (z score, P value); type: cell-based, mouse; details: LOPAC primary screen, neurosphere MTT proliferation, 3 μM, day 7
Where a name gives a salt, the structure may show the parent alone.
Classify: Satisfied when Z score is strictly less than -0.3; Not satisfied when Z score is not.

I'd appreciate it if you could check whether C[C@@H]1C(=O)NC2=Nc3cccc(Cl)c3CN21 has Z score smaller than -0.3.
Not satisfied

Please check: Z score for COCc1nc2c([nH]1)c(=O)n(C)c(=O)n2CC(C)C , strictly under -0.3 or not?
Satisfied

Bench note: check whether Nc1ccc(S(=O)(=O)Nc2ccnn2-c2ccccc2)cc1 shows Z score below -0.3
Satisfied

In the record for CCN(CC)CCNC(=O)c1cc(S(C)(=O)=O)ccc1OC [Tiapride hydrochloride] , is Z score less than -0.3?
Not satisfied

Is it true that Z score reported for CCCN(CC1CC1)c1nc(C)nc(Nc2c(Cl)cc(Cl)cc2Cl)c1Cl is less than -0.3?
Not satisfied

# TODO verify Z score < -0.3 strictly for this compound: Cl.O=C(O)C1=CCCN(CCON=C(c2ccccc2)c2ccccc2)C1 [NO-711 hydrochloride]
Satisfied

Hello, is Z score of the following compound strictly smaller than -0.3? Nc1nc2ccc(OC(F)(F)F)cc2s1
Satisfied

Dear colleague, could you confirm whether Z score of Cc1ncc(CNC(=O)N(CCCl)N=O)c(N)n1.Cl [Nimsutine hydrochloride] falls below -0.3? Thanks.
Satisfied

I'd appreciate it if you could check whether CCCN(CCC)[C@@H]1CCc2c(F)ccc(O)c2C1.Cl [R(+)-UH-301 hydrochloride] has Z score smaller than -0.3.
Satisfied
